Data origin, for the record: patent US11981686B2

- TARGET_SYSTEM: SIRT6 enzyme (Homo sapiens, UniProt Q8N6T7)
- Sequence (Q8N6T7 whole entry, species assumed): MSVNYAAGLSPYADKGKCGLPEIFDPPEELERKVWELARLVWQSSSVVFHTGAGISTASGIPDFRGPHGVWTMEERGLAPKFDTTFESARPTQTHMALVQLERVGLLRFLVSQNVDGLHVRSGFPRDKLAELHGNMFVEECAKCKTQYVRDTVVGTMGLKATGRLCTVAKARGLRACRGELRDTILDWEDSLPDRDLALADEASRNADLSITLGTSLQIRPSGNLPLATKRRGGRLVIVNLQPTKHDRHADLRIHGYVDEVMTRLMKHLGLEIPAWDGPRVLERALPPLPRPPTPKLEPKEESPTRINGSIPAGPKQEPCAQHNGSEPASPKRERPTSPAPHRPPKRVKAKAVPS
- ASSAY_COMMENT: Measurement of deacetylation activity (SIRT6, AlphaLISA, H3K9(Ac) peptide)
- Format: biochemical
- REPORTED_CONDITIONS: SIRT6 25 ng/mL, H3K9(Ac) biotin peptide 2 nM, NAD 10 μM, room temperature 30 minutes, duplicate
Measured EC150 (the concentration of the compound showing a relative enzyme activity of 150%) by item
Your answer is read as μm, so omit the unit and give the number.

{"COMPOUND": "CC(OCC(F)(F)F)c1noc(N2CCc3nc(NC(=O)N[C@H](C)CO)sc3C2)n1 (stereo partly shown)", "RECORDED_RESULT": 2.9}
{"COMPOUND": "COc1cccc(-c2cnc(N3[C@@H]4COC[C@H]3c3sc(NC(=O)N[C@H]5C[C@H](O)C5)nc3C4)o2)n1", "RECORDED_RESULT": 0.41}
{"COMPOUND": "CCOc1cccc(-c2cnc(N3[C@@H]4COC[C@H]3c3sc(NC(=O)NCC(C)(C)O)nc3C4)o2)n1", "RECORDED_RESULT": 1.2}
{"COMPOUND": "COc1cc(-c2noc(N3CCc4nc(NC(=O)NCc5nccn5C)sc4C3)n2)ccc1F", "RECORDED_RESULT": 2.6}
{"COMPOUND": "CC(C)(O)CNC(=O)Nc1nc2c(s1)[C@@H]1COC[C@H](C2)N1c1nc2cc(C(F)(F)F)ccc2o1", "RECORDED_RESULT": 0.61}
{"COMPOUND": "CNC(=O)Nc1nc2c(s1)C1CN(C(=O)OC)CC(C2)N1c1nc2cc(OC)ccc2o1 (stereo not shown)", "RECORDED_RESULT": 0.58}

--- query ---
Indicate its recorded EC150 (the concentration of the compound showing a relative enzyme activity of 150%); the compound in question is `CC(C)(CO)NC(=O)Nc1nc2c(s1)[C@@H]1COC[C@H](C2)N1c1nc(-c2ccc(F)cc2)no1`
2.5
